# assay-method-text: viability evaluation (MTS/PMS) of Kernow-C1 p6/luc RNA-transfected Huh7 cells, Example 3
# Assay type: cell-based
# experimental-parameters: human, highest tested concentration 50 μM, read-out: relative CC50
quantity-kind: CC50

[ask] // CC50 lookup, key: CCOc1nc(N)nc2c1ncn2[C@@H]1O[C@](F)(CO[P@](=O)(N[C@@H](C)C(=O)OC2CCCCC2)Oc2ccccc2)[C@@H](O)[C@@]1(C)F [Compound 1]
[reply] ≤ 50 µM

---

# Tested on: rat HEV replicon LA-B350/luc
# assay-method-text: antiviral activity against rat HEV replicon LA-B350/luc in Huh7 cells (Gaussia luciferase)
# Format: cell-based
# experimental-parameters: Huh-7, 72 h, 3 days, 50% reduction in Luc signal, two experiments
quantity-kind: pEC50
Note: pEC50 values are expressed as the negative base-10 logarithm of concentration in M.

[ask] // pEC50 lookup, key: CC(C)OC(=O)OCOP(=O)(OCOC(=O)OC(C)C)OC[C@@]1(F)O[C@@H](n2ccc(=O)[nH]c2=O)[C@](C)(F)[C@@H]1O [Compound 11]
[reply] 5.14

[ask] // pEC50 lookup, key: CCOc1nc(N)nc2c1ncn2[C@@H]1O[C@](F)(COP(=O)(OCOC(=O)OC(C)C)OCOC(=O)OC(C)C)[C@@H](O)[C@@]1(C)F [Compound 3]
[reply] 8.00

[ask] // pEC50 lookup, key: CC(C)OC(=O)OCOP(=O)(OCOC(=O)OC(C)C)OC[C@@]1(F)O[C@@H](n2ccc(=O)[nH]c2=O)[C@](C)(O)[C@@H]1O [Compound 9]
[reply] 5.32

[ask] // pEC50 lookup, key: CCOc1nc(N)nc2c1ncn2[C@@H]1O[C@](F)(COP(=O)(OCOC(=O)OC(C)C)OCOC(=O)OC(C)C)[C@@H](O)[C@@]1(C)O [Compound 6]
[reply] 7.64

Reference for the values: patent US12708641B2
